Every entry's value here was drawn from the nanobody polyreactivity screen of Harvey et al. (2022).

# experiment: yeast display, Sf9 membrane polyspecificity reagent, FACS + sequencing; frameworks hold sequencing errors
quantity kind: polyreactivity (PSR sort gate)

[[record]]
sequence_record = "QVQLVESGGCLVQAGGSLRLSCAASGRIFIRYTMGWYRQAPGKERELVAAISKSGGRTYYADSVKGRFTISRDNAKNTDYLQMNSLKPEYTAVYDCNKDTDSQYSWGQGTQVTVSS"
result = "high polyreactivity"

[[record]]
sequence_record = "QVQLVESGGGLVQAGGSLRLSCAASGFTFWYYAMGWYRQAPGKERELVAAISSNGASTYYADSVKGRFTISRDNAKNTVYLQMNSLKPEDTAVYYCNAYYDTWDSAYDYDYWGQGTQVTVSS"
result = "low polyreactivity"

[[record]]
sequence_record = "QVQLVDSGGGLVQAGGSLRLSCAASGSIFRYNDMGWYRQAPGKERELVATITSGTNTYYADSVKGRFTISRDNEKNTVYLQMNSLKPEDTAVYYCAAGYPSWYYGYPYDSWGQGTQVTVSS"
result = "low polyreactivity"

[[record]]
sequence_record = "QVQLVESGGGLVQAGGSLRLSCAASGSIFTPNAMGWYRQAPGKERELVAAISSSSDRTYYADSVKGRFTISRDNAKNTVYLQMNSLKPEDTAVYYCAAYAQKRYYWGQVTQVTVSS"
result = "high polyreactivity"


Query sequence follows.
In: Given QVQLVESGGGLVQAGGSLRLSCAASGSISSVYGMGWYRQAPGKERELVAAITSNGGSTYYADSVKGRFTISRDNAKNTVYLQMNSMKPEDTAVYYCAAKYGSRGYYSRGRYYWGQGTQVTVSS , state its recorded polyreactivity (PSR sort gate).
Out: high polyreactivity

----------
# experiment: yeast display, Sf9 membrane polyspecificity reagent, FACS + sequencing; frameworks hold sequencing errors
quantity kind: polyreactivity (PSR sort gate)

Solved cases below.
[[record]]
sequence_record = "QVHLVESGGGLVQAGGSLRLSCAPSGNIFFSNAMGWYRQAPGKERELVASISQSGGSTYYADSLKGRFTISRDNAKNTVYFQMNSLKPEDTAVYYCNAFSITFYDFNSWGQGTQVTVSS"
result = "low polyreactivity"

[[record]]
sequence_record = "QVQLVESGGGLVQAGGSLRLSCAASGITLVYYVMGWYRQAPGKERELVAAISSGGITYYADSVKGRFTISRDNAKNTVYLQMNSLKPEDTAVYYCAAESRQYVRTYGYWGQGTQVTVSS"
result = "low polyreactivity"

[[record]]
sequence_record = "QVQLVESGGGLVQAGGSLRLSCAASGSTFTENTMGWYRQAPGKERELVAAITDSGGSTYYADSVKGRFTISRDNAKNTVYLQMNSLKPEDTAVYYCAADVQPDTRSTPEMDYWGQGTQVTVSS"
result = "low polyreactivity"

[[record]]
sequence_record = "QVQLVESGGGLVQAGGSLRLSCAASGFIFYRYVMGWYRQAPGKERELVAAITWSGGSTYYADSVKGRFTISRDNAKNTVYLQMNSLKPEDTAVYYCAAEWWLPSFGMDYWGQGTQVTVSS"
result = "low polyreactivity"

[[record]]
sequence_record = "QVQLVESGGGLVQAGGSLRLSCAASGIIFPWSTMGWYRQAPGKERELVAAISSGGRTNYADSVKGRFTISRDNAKNTVYLQMNSLKPEDTAVYYCAAKYYRDRDWGQGTQVTVSS"
result = "high polyreactivity"

[[record]]
sequence_record = "QVQIVESGGGLVQAGGSLRLSCAASRRIFEYYTMGWYRQAPGKERELVARISSGGSTYYADTVKGRFTISRDNAKNSVYLQLNSLLPEDTAVYYCAAGRGYWWWYGYDYWGQGTEVTVSS"
result = "low polyreactivity"

[[record]]
sequence_record = "QVQLVESGGGLVQAGGSLRLSSAASGSTFFLYGMRWYSQPPGKERQLVAAITWNGGSTSYADSVKGRFTISRDIAKFTVYLQMNSLKPEDTAVYYWAADYYGYFSTAYEYWGQGTQVTVSS"
result = "low polyreactivity"

[[record]]
sequence_record = "QVHLQDSGGGLVKAGGSLRMSCAASGYIFGSGSMGWFRQAPGKERELVATINNGSSTYYADSVKGRFTISRDNAKNNVYLQMNSLKAEATAVYYCAVYLYRLTFFYYWGQGNQVTVSS"
result = "high polyreactivity"

[[record]]
sequence_record = "QVQLVESGGGLVQAGGSLRLSCAASGRTFVSNAMGWYRQAPGKERELVAAINSGGSTTYADSVKGRFTISRDNAKNTVYLKMNSLIPEDTAVYYFARRSRYSKGYDYWGQGTQVTVSS"
result = "low polyreactivity"

[[record]]
sequence_record = "QVQLAESGGGLVQAGGSLRLSCAASGIIFYFYAMGWYRQAPGKERELVAAINSSSGRTYYADSVKGRFTISRDNAKNSVYLQMNSLKPEDTAVYYCAAYYYGSYDGTPYDYWGQGTQVTVSS"
result = "low polyreactivity"


Query sequence follows.
In: Given QVQLVESGGGLVQAGGSLRLSSAASGSIFGDYAMGWYRQSPGKERELVAAISSDGSTNYADSVKGRFTISRDNAKNTVYLQMNSLKPEDTAVYYCAADTGGWYFYSYYYWGQGTQVTVSS , state its recorded polyreactivity (PSR sort gate).
Out: low polyreactivity

----------
# experiment: yeast display, Sf9 membrane polyspecificity reagent, FACS + sequencing; frameworks hold sequencing errors
quantity kind: polyreactivity (PSR sort gate)

Solved cases below.
[[record]]
sequence_record = "QVQLVESGGGLVQAGGSLRLSCAASGLTFVTYVMGWYRPAPGKERELVAAISYSGGSTYYADSVKGRFTISRDNAKNTVYLQMNSLKPEDTAVYYCAAEWYGYQEDDYWGQGTQVTVSS"
result = "low polyreactivity"

[[record]]
sequence_record = "QVQLVESGGGLVQAGGSLRLSCAASGYTFGYYALGRYRPAPGKERELVAAISSGGITKYADSVKGRFTISRENAKNTVYLQMNSLKPEDTAVYYCAASWYRYRFIRYDYWGQGTQVTVSS"
result = "high polyreactivity"

[[record]]
sequence_record = "QVQLVESGGGLVQAGGSLRLSCAASGRTFAYYAMGWYRQAPGKERELVAAISSSGGITYYADSVKGRFTISRDNAKNTVYLQMNSLKPEDTAVYYCATPRARTRLRYYWGQGTQVTVSS"
result = "high polyreactivity"

[[record]]
sequence_record = "QVQLVESGGGLVQAGGSLRLSCAASGRLFYRNAMGWYRQAPGKERELVAAISSSAGSTYYADSVKGRFTISRDNAKNTVYLQMNSLKPEDTAVYYCAASLYSWGQGTQVTVSS"
result = "high polyreactivity"


Query sequence follows.
In: Given QVQLVESVGGLVKAGGRLRLSCAASGRIFPPNALACSRQAPGKERELVADNNFSGDSTYYADSVKGRFTISRDNAKNTVYLQMNSLKPEDTSVYYCAAVISLVSYYYWGQATQVTVSS , state its recorded polyreactivity (PSR sort gate).
Out: low polyreactivity

----------
# experiment: yeast display, Sf9 membrane polyspecificity reagent, FACS + sequencing; frameworks hold sequencing errors
quantity kind: polyreactivity (PSR sort gate)

[[record]]
sequence_record = "QVQLVESGGGLVQAGGSLRLSCAASGFIFRWNAMGWYRQAPGKVRELVAAISNSDGSTYYADSVKGRFTISRDNAKNTVYVQMNSLKPEDTAVYYCYKLYRGGWYDYWGQGTQVTVSS"
result = "low polyreactivity"

[[record]]
sequence_record = "QVQLVESGGGLVQAGGSLRLSCAASGRIFIGNAMGWYRQAPGKERELVADISYSGGTTYYADSVKGRFTISRDNAKNTVYLQMNSLKPEDTAVYYCNKYDPRPVWQGWVWIEYYYWGQGTQVTVSS"
result = "low polyreactivity"

[[record]]
sequence_record = "QVHLVESGGGLVQAGGSLRLSCAASGRTFREYFMGWYRQAPGQERELVAVISWSTGSTYADSVKGRFTISRDNAKNTVYLQMNSLKPEDTAVYYCARRVQSLRNVVIYNYWGQGTQVTVSS"
result = "low polyreactivity"

[[record]]
sequence_record = "QVQLVESGGGLVQAGGSLRLSCAASVSIMARNAMVWYRQAPGKERELVAAISNSGSTNYADSVKGRFTISRDNAKNTVYLQMNSLKPEDTAVYYCAKDADHGWFEYDYWGQGTQVTVSS"
result = "low polyreactivity"


----------
# experiment: yeast display, Sf9 membrane polyspecificity reagent, FACS + sequencing; frameworks hold sequencing errors
quantity kind: polyreactivity (PSR sort gate)

Solved cases below.
[[record]]
sequence_record = "QVQLVESGGGLVQAGGSLRLSCAASGSIFPPYAMGWYRPAPGKERELVAAINSGGSTNYADSVKGRFTISRDNAKNTVYLQMNSLIPEDTAVYYCNVDESYDWRTRKYDSWGQVTQVTVSS"
result = "low polyreactivity"

[[record]]
sequence_record = "QVQLVESGGGLVQAGGSLRLSFAASGSIFLFNAMGWYRQAPGKERELVAAITSPTARTYYADSVKGRFTISRDNAKNTVYLQMNSLKPEDTAVYYCAARYRYAYGYGRGYSWGQGTQVTVSS"
result = "high polyreactivity"

[[record]]
sequence_record = "QVQLVESGGGLVQAGGSLRFSCAACGSIFEFYALGWSSQAPGKERELVAAITWDDGSTYYADSVKGRFTISRDNATNTVYLQMNSLTPEDTAVYYCAADTYITSDLYVYAYYYWGQGTQVTVSS"
result = "low polyreactivity"

[[record]]
sequence_record = "QVQLQESGGGLVQAGGGLRLSCAASGSILNQAPMGWYRQAPGKERELVATINEGSITNYADSVKGRFTISRDNAKNTVYLQMNSLKPEDTAVYYCAVNKYIGLDYHYWGQGTQVTVSS"
result = "low polyreactivity"

[[record]]
sequence_record = "QVQLVESGGGLVQAGGSLRLSCAASGFTLGYNAMGWYRQAPGKERQLVAGITWSGGSTSYADSVKGRFTISRDNAKNTVYLQMNSLKPEDTAVYYCAKLRRYSGWLPWPYAYDYWGLGTQVTVSS"
result = "high polyreactivity"

[[record]]
sequence_record = "QVQLVESGGGLVQAGGGLRLSCAASGSYYKYYAMGWYRQAPGKEREFVAAITRSGGSTYYADSVKGRFTISRDNAKNTDYLQMNSLKPEDTAVYYCATDLRTRNYDYWGQGTQVTVSS"
result = "high polyreactivity"


In: Given QVQLVESGGGLVQAGGSLRLSCAASGSIFGYYAMGWYRQAPGKERELVAVIRRSSGSTYYADSVKGRITISRDNAKKTVYLQMNSLKPEDTAVFYCASRRYEPIIWHSMDYWGQGTQVTVSS , state its recorded polyreactivity (PSR sort gate).
Out: low polyreactivity
